Data origin, for the record: patent US20230139171A1

assay system: human TLR9 (Homo sapiens, UniProt Q9NR96)
Sequence (Q9NR96 26-1032): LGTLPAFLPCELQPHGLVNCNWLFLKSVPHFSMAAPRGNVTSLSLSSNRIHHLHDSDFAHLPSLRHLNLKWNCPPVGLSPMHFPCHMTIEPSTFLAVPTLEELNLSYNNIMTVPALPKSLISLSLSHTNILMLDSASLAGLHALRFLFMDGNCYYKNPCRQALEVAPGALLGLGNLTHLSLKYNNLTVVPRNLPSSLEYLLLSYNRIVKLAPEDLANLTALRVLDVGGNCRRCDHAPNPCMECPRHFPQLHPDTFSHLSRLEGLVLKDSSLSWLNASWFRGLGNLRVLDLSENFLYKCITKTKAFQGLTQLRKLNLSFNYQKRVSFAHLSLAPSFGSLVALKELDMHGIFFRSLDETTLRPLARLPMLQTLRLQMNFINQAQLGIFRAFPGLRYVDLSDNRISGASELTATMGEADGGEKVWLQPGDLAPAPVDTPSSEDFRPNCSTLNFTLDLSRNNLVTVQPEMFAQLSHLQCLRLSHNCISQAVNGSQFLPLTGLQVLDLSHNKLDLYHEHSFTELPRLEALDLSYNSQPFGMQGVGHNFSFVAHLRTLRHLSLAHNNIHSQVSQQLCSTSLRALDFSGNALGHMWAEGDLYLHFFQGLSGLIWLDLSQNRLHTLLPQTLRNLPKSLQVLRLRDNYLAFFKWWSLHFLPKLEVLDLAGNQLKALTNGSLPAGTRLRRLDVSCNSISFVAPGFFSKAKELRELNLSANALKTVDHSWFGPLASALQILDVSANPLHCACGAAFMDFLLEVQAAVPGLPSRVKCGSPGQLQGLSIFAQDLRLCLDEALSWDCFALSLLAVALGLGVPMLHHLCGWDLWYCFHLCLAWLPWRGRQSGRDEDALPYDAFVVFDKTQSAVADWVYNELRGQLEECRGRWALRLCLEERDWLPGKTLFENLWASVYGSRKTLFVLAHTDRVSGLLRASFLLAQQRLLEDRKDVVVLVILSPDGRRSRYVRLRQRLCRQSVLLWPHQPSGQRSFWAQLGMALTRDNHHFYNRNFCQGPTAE
test description: TLR9 inhibition reporter assay (HEK-Blue cells, SEAP reporter, ODN2006 stimulation)
assay conditions: HEK-Blue cells overexpressing human TLR9, SEAP reporter, ODN2006 5 nM
As shown below, each of these compounds has a reported IC50 value.
metric: IC50

# compound, assay system, result
data = [
    ("Cc1c(-c2[nH]c3sc(C4CCN(CC(=O)N(C)C)CC4)nc3c2C(C)C)cn2ncnc2c1C", "human TLR9 (Homo sapiens, UniProt Q9NR96)", "23.1 µM"),
    ("Cc1c(-c2[nH]c3sc(C4CCN(C5CCOCC5)CC4)nc3c2C(C)C)cn2ncnc2c1C", "human TLR9 (Homo sapiens, UniProt Q9NR96)", "2.5 µM"),
    ("Cc1cc(-c2[nH]c3sc(C4CCC(NCC(C)(C)O)CC4)nc3c2C(C)C)cn2ncnc12 (single isomer, unassigned) [Example 140]", "human TLR9 (Homo sapiens, UniProt Q9NR96)", "10.4 µM"),
    ("Cc1cc(-c2[nH]c3sc(C4CCNCC4)nc3c2C(C)C)cn2ncnc12", "human TLR9 (Homo sapiens, UniProt Q9NR96)", "6.56 µM"),
    ("COc1cc(-c2[nH]c3sc(C4CCC(N5CC6(COC6)C5)CC4)nc3c2C(C)C)cn2ncnc12 (single isomer, unassigned) [Example 68]", "human TLR9 (Homo sapiens, UniProt Q9NR96)", "3.5 µM"),
    ("Cc1c(-c2[nH]c3sc(C4CCC(N5CC6(CCOCC6)C5)CC4)nc3c2C(C)C)cn2ncnc2c1C (single isomer, unassigned) [Example 240]", "human TLR9 (Homo sapiens, UniProt Q9NR96)", "6.23 µM"),
    ("Cc1c(-c2[nH]c3sc(C4CCN(CC5(C)COC5)CC4)nc3c2C(C)C)cn2ncnc2c1C", "human TLR9 (Homo sapiens, UniProt Q9NR96)", "6.84 µM"),
    ("Cc1c(-c2[nH]c3sc(N4CCN(C5CCOCC5)CC4)nc3c2C(C)C)cn2ncnc2c1C", "human TLR9 (Homo sapiens, UniProt Q9NR96)", "29.2 µM"),
    ("Cc1c(-c2[nH]c3sc(N4CCC(N(C)C(C)C)CC4)nc3c2C(C)C)cn2ncnc2c1C", "human TLR9 (Homo sapiens, UniProt Q9NR96)", "7.52 µM"),
    ("Cc1c(-c2[nH]c3sc(C4CCC(NC5COC5)CC4)nc3c2C(C)C)cn2ncnc2c1C (single isomer, unassigned) [Example 185]", "human TLR9 (Homo sapiens, UniProt Q9NR96)", "23 µM"),
    ("Cc1c(-c2[nH]c3sc(C(=O)NC4CCC(N(C)C)CC4)nc3c2C(C)C)cn2ncnc2c1C (single isomer, unassigned) [Example 368]", "human TLR9 (Homo sapiens, UniProt Q9NR96)", "5.46 µM"),
    ("Cc1c(-c2[nH]c3sc(C4CCC(N5CC(F)C5)CC4)nc3c2C(C)C)cn(C)c(=O)c1C (single isomer, unassigned) [Example 266]", "human TLR9 (Homo sapiens, UniProt Q9NR96)", "> 50 µM"),
    ("COCCN1CCN(c2nc3c(C(C)C)c(-c4cc(C)c5ncnn5c4)[nH]c3s2)[C@H](C)C1", "human TLR9 (Homo sapiens, UniProt Q9NR96)", "38.1 µM"),
    ("CNC(=O)CN1CCC(c2nc3c(C(C)C)c(-c4cc(OC)c5ncnn5c4)[nH]c3s2)CC1", "human TLR9 (Homo sapiens, UniProt Q9NR96)", "30.9 µM"),
]
